# Assayed system: bovine trypsin (bovine, UniProt P00760 24-246)
# Sequence (P00760 24-246): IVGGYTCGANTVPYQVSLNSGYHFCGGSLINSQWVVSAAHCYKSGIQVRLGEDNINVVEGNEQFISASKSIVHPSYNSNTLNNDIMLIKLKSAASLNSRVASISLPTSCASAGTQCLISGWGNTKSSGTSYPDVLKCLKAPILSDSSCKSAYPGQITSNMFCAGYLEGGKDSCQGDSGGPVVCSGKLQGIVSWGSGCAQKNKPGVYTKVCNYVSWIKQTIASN
# Assay details: trypsin (50 nM) BApNA hydrolysis, OD405; peptide at 0.00098 µM
Bridge positions count the residues as written; N and C are the ends. Ends that are not written are not given here.
Listed here: items and their measured Residual trypsin activity (%).
Measured metric: Residual trypsin activity (%)

> print(dat)
                                     binder  value.measured
1  CGTATKSIPPICF (disulfide 1-12 (inferred), synthetic) [BT25]             101
2  CGRQTKSIPPICF (disulfide 1-12 (inferred), synthetic) [BT54]            99.2
3  CGRYTKSIPPICF (disulfide 1-12 (inferred), synthetic) [BT53]             109
4  CGRATKSIPPICF (disulfide 1-12 (inferred), synthetic) [BT9]             100
5  CGRSTKSIPPICF (disulfide 1-12 (inferred), synthetic) [BT47]             105
